molecular target: EGFR L858R/T790M/C797S (BaF3-LTC cells) (Homo sapiens, UniProt P00533, C797S/L858R/T790M); construct: expressed in transfected cells; host or cells: BaF3; test: EGFR degradation HTRF assay, BaF3-LTC cells; type: cell-based; conditions: BaF3-LTC cells; maximum percentage of inhibition (degradation); read-out: Dmax (%) BaF3-LTC
Sequence (P00533 25-1210 T790M/C797S/L858R): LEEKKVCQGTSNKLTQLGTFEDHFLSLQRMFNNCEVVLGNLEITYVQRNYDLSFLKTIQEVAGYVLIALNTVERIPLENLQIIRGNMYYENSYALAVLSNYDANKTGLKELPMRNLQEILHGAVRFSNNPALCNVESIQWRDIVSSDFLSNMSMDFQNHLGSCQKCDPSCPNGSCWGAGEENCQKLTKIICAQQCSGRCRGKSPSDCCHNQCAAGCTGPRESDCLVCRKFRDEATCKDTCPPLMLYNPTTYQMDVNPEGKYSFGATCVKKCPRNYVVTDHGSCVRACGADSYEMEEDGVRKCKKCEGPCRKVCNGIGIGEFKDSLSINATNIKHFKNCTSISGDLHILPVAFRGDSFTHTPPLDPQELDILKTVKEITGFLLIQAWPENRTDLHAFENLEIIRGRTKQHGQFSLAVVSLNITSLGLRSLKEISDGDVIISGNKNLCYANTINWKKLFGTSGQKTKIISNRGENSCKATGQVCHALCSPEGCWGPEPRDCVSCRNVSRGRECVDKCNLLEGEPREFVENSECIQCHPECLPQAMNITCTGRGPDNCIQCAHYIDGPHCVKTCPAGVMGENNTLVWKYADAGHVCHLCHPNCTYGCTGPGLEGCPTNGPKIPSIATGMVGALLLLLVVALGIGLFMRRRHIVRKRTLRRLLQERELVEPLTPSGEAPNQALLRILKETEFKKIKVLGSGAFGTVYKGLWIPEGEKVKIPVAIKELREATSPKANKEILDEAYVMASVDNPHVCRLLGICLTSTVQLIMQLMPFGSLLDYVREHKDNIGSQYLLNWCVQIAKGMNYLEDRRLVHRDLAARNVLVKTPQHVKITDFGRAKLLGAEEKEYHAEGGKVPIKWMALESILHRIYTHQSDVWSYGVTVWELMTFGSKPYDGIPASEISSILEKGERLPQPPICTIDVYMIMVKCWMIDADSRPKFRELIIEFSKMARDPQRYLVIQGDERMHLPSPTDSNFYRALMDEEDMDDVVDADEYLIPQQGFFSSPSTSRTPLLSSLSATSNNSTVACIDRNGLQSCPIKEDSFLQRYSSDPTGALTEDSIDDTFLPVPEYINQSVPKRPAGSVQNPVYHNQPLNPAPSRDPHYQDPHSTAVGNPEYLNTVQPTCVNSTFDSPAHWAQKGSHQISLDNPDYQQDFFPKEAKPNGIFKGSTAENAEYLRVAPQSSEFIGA
Measurement kind: Dmax (%)

- Compound: "COc1cc(N2CCC3(CCN(C(=O)[C@@H]4CCN(c5cc(F)c([C@H]6CCC(=O)NC6=O)c(F)c5)C4)CC3)CC2)c(C)cc1Nc1ncc(Br)c(Nc2ccc3nccnc3c2P(C)(C)=O)n1"
  Measured result: 84
- Compound: "CCOc1cc(N2CCC(N3CCN(C[C@@H]4CCN(c5cc(F)cc6c5oc(=O)n6C5CCC(=O)NC5=O)C4)CC3)CC2)c(CC)cc1Nc1ncc(Br)c(Nc2ccc3nc(CC)ccc3c2P(C)(C)=O)n1 (stereo partly drawn)"
  Measured result: 88
- Compound: "CCc1cc(Nc2ncc(Br)c(Nc3ccc4ccnnc4c3P(C)(C)=O)n2)c(OC)cc1N1CCC(N2CCN(C(=O)[C@@H]3CCN(c4cc(F)c([C@H]5CCC(=O)NC5=O)c(F)c4)C3)CC2)CC1"
  Measured result: 83.6
- Compound: "CCc1cc(Nc2ncc(Br)c(Nc3ccc4nc(C)ccc4c3P(C)(C)=O)n2)c(OC)cc1N1CCC(N2CCN(C(=O)Cc3cccc4c3n(C)c(=O)n4C3CCC(=O)NC3=O)CC2)CC1 (stereo not drawn)"
  Measured result: 94.1
- Compound: "CCOc1cc(N2CCC(N3CCN(CCc4ccc(F)c5c4n(CC)c(=O)n5C4CCC(=O)NC4=O)CC3)CC2)c(CC)cc1Nc1ncc(Br)c(Nc2cc(F)c3nc(CC)ccc3c2P(C)(C)=O)n1 (stereo not drawn)"
  Measured result: 91.2
- Compound: "CCc1cc(Nc2ncc(Br)c(Nc3ccc4nc(CO)ccc4c3P(C)(C)=O)n2)c(OC)cc1N1CCC(N2CCN(C(=O)[C@@H]3CCN(c4cc(F)c(C5CCC(=O)NC5=O)c(F)c4)C3)CC2)CC1 (stereo partly drawn)"
  Measured result: 92.3
- Compound: "CCc1cc(Nc2ncc(Br)c(Nc3ccc4nc(C)ccc4c3P(C)(C)=O)n2)c(OC)cc1N1CCC(N2CCN(C(=O)Cc3cc(F)c([C@H]4CCC(=O)NC4=O)c(F)c3)CC2)CC1"
  Measured result: 88.3
- Compound: "CCOc1cc(N2CCC(N3CCN(CCCc4cc(F)cc5c4oc(=O)n5C4CCC(=O)NC4=O)CC3)CC2)c(CC)cc1Nc1ncc(Br)c(Nc2ccc3nc(CC)ccc3c2P(C)(C)=O)n1 (stereo not drawn)"
  Measured result: 85.5
- Compound: "CCc1cc(Nc2ncc(Br)c(Nc3ccc4nc(C)ccc4c3P(C)(C)=O)n2)c(OC2CC2)cc1N1CCC(N2CCN(CCc3ccc4c(c3)oc(=O)n4C3CCC(=O)NC3=O)CC2)CC1 (stereo not drawn)"
  Measured result: 89.1
- Compound: "CCOc1cc(N2CCC(N3CCN(CCc4cc5oc(=O)n(C6CCC(=O)NC6=O)c5cc4C(F)(F)F)CC3)CC2)c(CC)cc1Nc1ncc(Br)c(Nc2ccc3nc(CC)ccc3c2P(C)(C)=O)n1 (stereo not drawn)"
  Measured result: 83.8
- Compound: "CCc1cc(Nc2ncc(Br)c(Nc3cc(F)c4nc(C)ccc4c3P(C)(C)=O)n2)c(OC)cc1N1CCC(N2CCN(C(=O)C3CCN(c4cc(F)c(C5CCC(=O)NC5=O)c(F)c4)CC3)CC2)CC1 (stereo not drawn)"
  Measured result: 92
- Compound: "CCc1ccc2c(P(C)(C)=O)c(Nc3nc(Nc4cc(CC)c(N5CCC(N6CCN(C[C@H]7C[C@H](N(C)c8cc(F)c(C9CCC(=O)NC9=O)c(F)c8)C7)CC6)CC5)cc4OC)ncc3Br)ccc2n1 (stereo partly drawn)"
  Measured result: 93.4

Each recorded value in this set is attributed to patent US20230265116A1.
